Cited source for all entries: patent US10052320B2

Molecular target: Ba/F3-FGFR3-transfected cells (Homo sapiens, UniProt P22607)
Sequence (P22607 whole entry, change not shown): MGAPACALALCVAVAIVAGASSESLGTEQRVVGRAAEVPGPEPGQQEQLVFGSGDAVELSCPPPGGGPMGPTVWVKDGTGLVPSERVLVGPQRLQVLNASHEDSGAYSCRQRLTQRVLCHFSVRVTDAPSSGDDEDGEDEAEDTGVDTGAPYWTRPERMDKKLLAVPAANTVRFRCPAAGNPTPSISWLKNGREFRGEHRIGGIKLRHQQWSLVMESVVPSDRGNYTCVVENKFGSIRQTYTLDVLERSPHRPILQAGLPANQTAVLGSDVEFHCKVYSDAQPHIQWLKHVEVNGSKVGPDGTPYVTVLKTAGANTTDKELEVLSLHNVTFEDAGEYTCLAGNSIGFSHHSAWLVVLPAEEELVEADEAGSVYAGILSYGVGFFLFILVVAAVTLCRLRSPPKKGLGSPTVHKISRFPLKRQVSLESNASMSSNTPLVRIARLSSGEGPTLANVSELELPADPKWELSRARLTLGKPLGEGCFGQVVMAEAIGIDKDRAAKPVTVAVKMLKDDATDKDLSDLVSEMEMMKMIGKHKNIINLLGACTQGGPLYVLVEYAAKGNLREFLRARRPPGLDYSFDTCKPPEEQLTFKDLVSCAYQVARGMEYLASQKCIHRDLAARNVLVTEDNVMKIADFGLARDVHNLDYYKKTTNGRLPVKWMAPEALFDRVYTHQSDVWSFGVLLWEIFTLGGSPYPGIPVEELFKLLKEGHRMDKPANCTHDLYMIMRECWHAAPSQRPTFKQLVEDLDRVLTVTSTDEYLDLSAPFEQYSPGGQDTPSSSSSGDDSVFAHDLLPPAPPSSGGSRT
Test: Ba/F3-FGFR3 (minus IL3) cellular proliferation assay, Alamar Blue
Assay type: cell-based
Conditions: minus IL3, 384 well
Protocol: Ba/F3-FGFR3 (Minus IL3 or Plus IL3) (Cellular Proliferation Assay) Cells were put in an incubator at 37° C. and 5% CO2. After 24 hours, 10 μl of Alamar Blue solution (0.5 mM K3Fe(CN)6, 0.5 mM KaFe(CN)6, 0.15 mM Resazurin and 100 mM Phosphate Buffer) was added to the wells, incubated for 4 hours at 37° C. and 5% CO2 before RFU's (Relative Fluorescence Units) (ex. 540 nm., em. 590 nm.) were measured in a flurorescence plate reader. […]
Result type: BAF3-FGFR 3 (MIN IL3) 384 well pIC50

CO/N=C(\C)c1cnc2ccc(N(CCO)c3cc(OC)cc(OC)c3)cc2n1 [Compound 29]; 5.5
CNC(=O)c1cc(-c2cnc3ccc(N(CCN4CCCC4=O)c4cc(OC)cc(OC)c4)cc3n2)ccn1 [Compound 25]; 5.13
COc1cc(OC)cc(N(CCO)c2ccc3ncc(-c4ccncc4)nc3c2)c1 [Compound 11]; 6.65
COc1cc(OC)cc(N(CCNC(C)C)c2ccc3ncc(C(=O)N4CCN(C)CC4)nc3c2)c1 [Compound 179]; 5.19
COc1cc(OC)cc(N(CCNC(C)C)c2ccc3ncc(C(=O)NCCCN4CCN(C)CC4)nc3c2)c1 [Compound 159]; 5.82
COCCCN(c1cc(OC)cc(OC)c1)c1ccc2ncc(-c3ccn(C)c3)nc2c1 [Compound 3]; 6.62
CNC(=O)c1cc(-c2cnc3ccc(N(CCNC(C)C)c4cc(OC)cc(OC)c4)cc3n2)ccn1 [Compound 14]; 7.03

---

Target: FGFR4 (h) (Homo sapiens, UniProt P22455)
Sequence (P22455 22-802): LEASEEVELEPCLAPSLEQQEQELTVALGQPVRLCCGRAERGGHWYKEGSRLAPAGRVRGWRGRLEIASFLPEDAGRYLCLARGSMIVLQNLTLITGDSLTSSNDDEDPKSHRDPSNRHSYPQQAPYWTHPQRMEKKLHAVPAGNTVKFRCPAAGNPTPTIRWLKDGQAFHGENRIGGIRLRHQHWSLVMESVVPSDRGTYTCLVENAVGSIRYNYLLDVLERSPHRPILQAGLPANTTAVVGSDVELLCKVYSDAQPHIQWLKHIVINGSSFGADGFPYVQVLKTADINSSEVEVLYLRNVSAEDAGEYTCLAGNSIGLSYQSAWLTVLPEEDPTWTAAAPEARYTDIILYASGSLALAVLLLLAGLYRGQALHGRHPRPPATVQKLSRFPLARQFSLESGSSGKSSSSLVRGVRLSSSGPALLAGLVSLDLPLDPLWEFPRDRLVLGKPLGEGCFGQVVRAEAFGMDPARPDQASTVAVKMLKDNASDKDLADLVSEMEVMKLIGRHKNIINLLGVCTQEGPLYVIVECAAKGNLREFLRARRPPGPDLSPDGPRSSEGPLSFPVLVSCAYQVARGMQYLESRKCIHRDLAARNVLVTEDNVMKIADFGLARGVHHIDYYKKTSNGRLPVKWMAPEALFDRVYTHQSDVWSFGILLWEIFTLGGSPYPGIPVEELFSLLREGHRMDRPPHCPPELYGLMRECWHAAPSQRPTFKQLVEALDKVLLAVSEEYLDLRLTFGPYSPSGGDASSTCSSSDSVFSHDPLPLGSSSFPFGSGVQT
Assay: FGFR4 (enzymatic assay), TR-FRET
Assay type: biochemical
Settings: read-out: FGFR 4 pIC50 (converted)
Result type: IC50 (µM)

Below: 2 molecules and their reported IC50.
COc1cc(OC)cc(N(CCCO)c2ccc3ncc(-c4ccc(F)nc4)nc3c2)c1; 0.0871
COc1cc(OC)cc(N(CCO)c2ccc3ncc(-c4ccnc(C(=O)NCCCN)c4)nc3c2)c1; 0.245

[I] COc1cc(OC)cc(N(CCO)c2ccc3ncc(N4CCC(CN)CC4)nc3c2)c1
[II] COCCCN(c1cc(OC)cc(OC)c1)c1ccc2ncc(-c3ccn(C)c3)nc2c1
Input pair: I , II . Output: entry with lower IC50. Please respond with the label that marks your chosen entry.
II
(II: 0.0389 µM, I: 0.617 µM)

---

In this section we review reported BAF3-FLT3 (MIN IL3) 96 well pIC50 values for a set of compounds.
Target: Ba/F3-Flt3-transfected cells (Homo sapiens, UniProt P36888, cells depend on it, form not given)
Sequence (P36888 1-993): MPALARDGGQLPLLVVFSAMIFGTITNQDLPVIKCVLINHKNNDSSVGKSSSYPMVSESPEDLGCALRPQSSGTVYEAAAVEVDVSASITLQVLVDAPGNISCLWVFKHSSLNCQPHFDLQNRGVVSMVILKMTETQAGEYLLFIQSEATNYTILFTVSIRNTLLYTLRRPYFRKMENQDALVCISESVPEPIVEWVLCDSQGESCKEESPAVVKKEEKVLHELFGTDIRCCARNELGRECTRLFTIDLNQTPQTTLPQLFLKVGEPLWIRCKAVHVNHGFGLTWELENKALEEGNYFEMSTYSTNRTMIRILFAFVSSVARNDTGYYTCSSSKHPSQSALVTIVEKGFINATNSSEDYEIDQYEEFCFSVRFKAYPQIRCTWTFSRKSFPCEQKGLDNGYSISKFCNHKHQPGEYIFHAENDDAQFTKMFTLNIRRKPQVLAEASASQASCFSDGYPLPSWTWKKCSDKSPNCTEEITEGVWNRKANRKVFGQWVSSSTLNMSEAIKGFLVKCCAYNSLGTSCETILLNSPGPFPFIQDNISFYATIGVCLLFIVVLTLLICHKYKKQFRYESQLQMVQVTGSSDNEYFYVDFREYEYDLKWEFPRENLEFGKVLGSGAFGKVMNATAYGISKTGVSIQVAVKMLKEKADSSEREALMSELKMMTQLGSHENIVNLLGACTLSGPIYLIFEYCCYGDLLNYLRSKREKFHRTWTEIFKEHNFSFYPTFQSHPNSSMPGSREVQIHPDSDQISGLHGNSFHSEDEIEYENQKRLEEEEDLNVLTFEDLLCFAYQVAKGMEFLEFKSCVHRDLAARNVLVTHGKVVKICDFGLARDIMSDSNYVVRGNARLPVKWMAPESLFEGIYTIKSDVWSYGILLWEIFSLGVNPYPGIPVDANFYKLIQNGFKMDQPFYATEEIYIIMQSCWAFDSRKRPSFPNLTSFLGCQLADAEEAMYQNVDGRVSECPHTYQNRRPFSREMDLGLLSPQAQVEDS
Assay: Ba/F3-Flt3 (minus IL3) cellular proliferation assay, Alamar Blue
Format: cell-based
Details: minus IL3

COc1cc(OC)cc(N(CC2CC2)c2ccc3ncc(-n4ccnc4C)nc3c2)c1; <5

As a next step, examine the compound that follows.
Using the record for COc1cc(OC)cc(N(CC2CC2)c2ccc3ncc(-n4nccc4C)nc3c2)c1 , report its BAF3-FLT3 (MIN IL3) 96 well pIC50.
<5

---

Molecular target: FGFR4 (h) (Homo sapiens)
Assay: FGFR4 (enzymatic assay), TR-FRET
Format: biochemical
Settings: read-out: FGFR 4 pIC50 (converted)
Result type: IC50 (nM)

Below: 5 molecules and their reported IC50.
COc1cc(OC)cc(N(CCNC(C)C)c2ccc3ncc(-c4ccncc4)nc3c2)c1; 20.4
COc1cc(OC)cc(N(CC2CC2)c2ccc3ncc(-c4ccc5[nH]ccc5c4)nc3c2)c1; 3980
COc1cc(OC)cc(N(CCO)c2ccc3ncc(-c4ccncc4)nc3c2)c1; 41.7
COc1cc(OC)cc(N(CCNC(C)C)c2ccc3ncc(C(=O)NCCCN4CCCCC4)nc3c2)c1; 603
COc1cc(OC)cc(N(CCNC(C)C)c2ccc3ncc(C(=O)NCCN4CCOCC4)nc3c2)c1; 309

[a] COc1cc(OC)cc(N(CCNC(C)C)c2ccc3ncc(-c4ccn[nH]4)nc3c2)c1
[b] COc1cc(OC)cc(N(CC2CC2)c2ccc3ncc(N4CCN(CCO)CC4)nc3c2)c1
[c] COc1cc(OC)cc(N(CCNC(C)C)c2ccc3ncc(N4CCC(CN)CC4)nc3c2)c1
[d] COc1cc(OC)cc(N(CCNC(C)C)c2ccc3ncc(-c4ccc(N5CCN(C)CC5)nc4)nc3c2)c1
Kindly order the items shown according to IC50, from the highest value down. Enter labels, ranked according to the request.
b, c, d, a

---

In this section we review reported IC50 values for a set of compounds.
Test system: Ba/F3-FGFR1-transfected cells in the presence of 10 ng/ml murine IL3
Assay: Ba/F3-FGFR1 (plus IL3) cellular proliferation counterscreen, Alamar Blue
Type: cell-based
Details: Mus musculus; plus IL3, 384 well; read-out: BAF3-FGFR 1 (PLUS IL3) 384 well pIC50 (converted)
Description: Ba/F3-FGFR1 (Minus IL3 or Plus IL3) (Cellular Proliferation Assay) In a 384 well plate, 100 nl of compound dilution in DMSO was sprayed before adding 50 μl cell culture medium (phenol red free RPMI-1640, 10% FBS, 2 mM L-Glutamine and 50 μg/ml Gentamycin) containing 20000 cells per well of Ba/F3-FGFR1-transfected cells. Cells were put in an incubator at 37° C. and 5% CO2. […]

Below: 2 compounds and their reported IC50.
COc1cc(OC)cc(N(CCCNCC(F)(F)F)c2ccc3ncc(-c4ccnc(C(=O)NCCCN)c4)nc3c2)c1; > 10 µM
COc1cc(OC)cc(N(CCCO)c2ccc3ncc(-c4ccc(N5CCOCC5)nc4)nc3c2)c1; > 10 µM

As a next step, examine the compound that follows.
Missing value: IC50, Ba/F3-FGFR1-transfected cells in the presence of 10 ng/ml murine IL3, entry COc1cc(OC)cc(N(CC2CC2)c2ccc3ncc(-c4ccnn4C)nc3c2)c1 . Fill in?
> 10 µM

---

Target: FGFR1 (h) (Homo sapiens)
Sequence (P11362 22-822): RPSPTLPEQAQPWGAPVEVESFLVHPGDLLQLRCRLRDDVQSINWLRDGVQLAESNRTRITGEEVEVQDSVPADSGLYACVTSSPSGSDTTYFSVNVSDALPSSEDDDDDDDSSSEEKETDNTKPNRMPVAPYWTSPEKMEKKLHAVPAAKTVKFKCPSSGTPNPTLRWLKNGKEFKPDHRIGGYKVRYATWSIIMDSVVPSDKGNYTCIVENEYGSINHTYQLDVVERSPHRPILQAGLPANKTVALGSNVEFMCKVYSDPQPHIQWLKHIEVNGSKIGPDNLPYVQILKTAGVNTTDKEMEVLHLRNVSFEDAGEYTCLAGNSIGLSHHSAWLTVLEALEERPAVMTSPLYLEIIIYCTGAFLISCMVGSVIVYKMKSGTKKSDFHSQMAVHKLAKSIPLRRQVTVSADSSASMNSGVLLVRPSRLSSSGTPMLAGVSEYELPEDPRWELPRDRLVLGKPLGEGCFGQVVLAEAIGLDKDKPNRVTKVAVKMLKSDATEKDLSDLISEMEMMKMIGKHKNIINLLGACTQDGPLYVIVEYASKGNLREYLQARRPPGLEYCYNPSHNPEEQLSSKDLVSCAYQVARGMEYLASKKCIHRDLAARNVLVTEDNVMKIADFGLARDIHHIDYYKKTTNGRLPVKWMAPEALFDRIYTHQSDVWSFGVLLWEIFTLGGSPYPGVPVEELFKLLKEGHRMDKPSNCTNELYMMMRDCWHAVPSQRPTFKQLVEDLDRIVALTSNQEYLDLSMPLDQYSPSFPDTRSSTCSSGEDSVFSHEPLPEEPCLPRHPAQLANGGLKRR
Assay: FGFR1 (enzymatic assay), TR-FRET
Format: biochemical
Settings: read-out: FGFR 1 pIC50 (converted)
Result type: IC50 (nM)

Below: 2 molecules and their reported IC50.
COc1cc(OC)cc(N(CCCNCC(F)(F)F)c2ccc3ncc(-c4cnc(OC)nc4)nc3c2)c1; 112
COc1cc(OC)cc(N(CCO)c2ccc3ncc(-c4ccc(OC)nc4)nc3c2)c1; 26.3

[P] COc1cc(OC)cc(N(CC2CO2)c2ccc3ncc(-c4ccc(N)nc4)nc3c2)c1 (stereo not shown)
[Q] COc1cc(OC)cc(N(CC2CC2)c2ccc3ncc(-c4nccn4C)nc3c2)c1
Input pair: P , Q . Output: entry with lower IC50. Please respond with the label that marks your chosen entry.
P
(P: 27.5 nM, Q: 575 nM)
